Hello, the source for this data is PubChem BioAssay AID2060897, in case you need it.

Test system: 966289-007-R4-J1-PDC complex spheroid viability
Measurement protocol: Anticancer human tumor 966289-007-R4-J1-PDC patient-derived pancreatic adenocarcinoma cell line growth inhibition [RAS]
Condition parameters: second compound 3.16 µM; first compound 0.316 µM; stronger effect = lower value
Property measured: viability, T/C

INSERT INTO results (compound, property_measured, reported) VALUES
  ('C=CC(=O)Nc1cc(Nc2nccc(-c3cn(C)c4ccccc34)n2)c(OC)cc1N(C)CCN(C)C + C#Cc1c(F)ccc2cc(O)cc(-c3ncc4c(N5CC6CCC(C5)N6)nc(OCC56CCCN5CC(F)C6)nc4c3F)c12', 'viability, T/C', '114%'),
  ('Cc1nc(N2CCC3(CC2)COC(C)C3N)c(CO)nc1Sc1ccnc(N)c1Cl (stereo not given) + C#Cc1c(F)ccc2cc(O)cc(-c3ncc4c(N5CC6CCC(C5)N6)nc(OCC56CCCN5CC(F)C6)nc4c3F)c12', 'viability, T/C', '113%'),
  ('Nc1ccn(C2OC(CO)C(O)C2(F)F)c(=O)n1 (stereo not given) + C#Cc1c(F)ccc2cc(O)cc(-c3ncc4c(N5CC6CCC(C5)N6)nc(OCC56CCCN5CC(F)C6)nc4c3F)c12', 'viability, T/C', '2.42%'),
  ('CC(=O)OC12COC1CC(O)C1(C)C(=O)C(O)C3=C(C)C(OC(=O)C(O)C(NC(=O)OC(C)(C)C)c4ccccc4)CC(O)(C(OC(=O)c4ccccc4)C21)C3(C)C (stereo not given) + C#Cc1c(F)ccc2cc(O)cc(-c3ncc4c(N5CC6CCC(C5)N6)nc(OCC56CCCN5CC(F)C6)nc4c3F)c12', 'viability, T/C', '25%'),
  ('CCC(CC)c1cc(NC2CCC(N)C2)n2nccc2n1 (stereo not given) + C#Cc1c(F)ccc2cc(O)cc(-c3ncc4c(N5CC6CCC(C5)N6)nc(OCC56CCCN5CC(F)C6)nc4c3F)c12', 'viability, T/C', '116%');

###

Test system: 966289-007-R4-J1-PDC complex spheroid viability
Measurement protocol: Anticancer human tumor 966289-007-R4-J1-PDC cell line growth inhibition [RAS];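 further: spheroids exposed to agents for one week before readout; percent viability relative to DMSO vehicle control wells as 100%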
Condition parameters: second compound 0.3 µM; first compound 0.316 µM; stronger effect = lower value
Property measured: viability, T/C (%)

INSERT INTO measurements (compound, system, output_unit, reported) VALUES
  ('C[C@@H](NC(=O)c1ncnc(N)c1Cl)c1ncc(C(=O)Nc2cc(C(F)(F)F)c(Cl)cn2)s1 + CCn1c(-c2cc(N3CCN(C)CC3)cnc2C(C)OC)c2c3cc(ccc31)-c1csc(n1)CC(NC(=O)C1CC1C)C(=O)N1CCCC(N1)C(=O)OCC(C)(C)C2', '966289-007-R4-J1-PDC complex spheroid viability', '%', 130),
  ('C=CC(=O)Nc1cc(Nc2nccc(-c3cn(C)c4ccccc34)n2)c(OC)cc1N(C)CCN(C)C + CCn1c(-c2cc(N3CCN(C)CC3)cnc2C(C)OC)c2c3cc(ccc31)-c1csc(n1)CC(NC(=O)C1CC1C)C(=O)N1CCCC(N1)C(=O)OCC(C)(C)C2', '966289-007-R4-J1-PDC complex spheroid viability', '%', 123);

###

Listed molecules paired with reported viability, T/C
Test system: 966289-007-R4-J1-PDC complex spheroid viability
Measurement protocol: Anticancer human tumor 966289-007-R4-J1-PDC cell line growth inhibition [RAS];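 further: spheroids exposed to agents for one week before readout; percent viability relative to DMSO vehicle control wells as 100%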
Condition parameters: second compound 1 µM; first compound 3.16 µM; stronger effect = lower value
Property measured: viability, T/C

INSERT INTO measurements (molecule, system, property_measured, reported) VALUES
  ('CC(C)NCC(C(=O)N1CCN(c2ncnc3c2C(C)CC3O)CC1)c1ccc(Cl)cc1 (stereo not given) + C#Cc1c(F)ccc2cc(O)cc(-c3ncc4c(N5CC6CCC(C5)N6)nc(OCC56CCCN5CC(F)C6)nc4c3F)c12', '966289-007-R4-J1-PDC complex spheroid viability', 'viability, T/C', '74.6%'),
  ('Cc1nc(N2CCC3(CC2)COC(C)C3N)c(CO)nc1Sc1ccnc(N)c1Cl (stereo not given) + C#Cc1c(F)ccc2cc(O)cc(-c3ncc4c(N5CC6CCC(C5)N6)nc(OCC56CCCN5CC(F)C6)nc4c3F)c12', '966289-007-R4-J1-PDC complex spheroid viability', 'viability, T/C', '97.8%'),
  ('CC(C)NCC(C(=O)N1CCN(c2ncnc3c2C(C)CC3O)CC1)c1ccc(Cl)cc1 (stereo not given) + C=CC(=O)N1CCN(c2nc(OCC3CCCN3C)nc3c(F)c(-c4nc(N)cc(C)c4C(F)(F)F)c(Cl)cc23)C(C)C1', '966289-007-R4-J1-PDC complex spheroid viability', 'viability, T/C', '62.9%'),
  ('Cc1nc(N2CCC3(CC2)COC(C)C3N)c(CO)nc1Sc1ccnc(N)c1Cl (stereo not given) + C=CC(=O)N1CCN(c2nc(OCC3CCCN3C)nc3c(F)c(-c4nc(N)cc(C)c4C(F)(F)F)c(Cl)cc23)C(C)C1', '966289-007-R4-J1-PDC complex spheroid viability', 'viability, T/C', '104%'),
  ('C[C@@H](NC(=O)c1ncnc(N)c1Cl)c1ncc(C(=O)Nc2cc(C(F)(F)F)c(Cl)cn2)s1 + C=CC(=O)N1CCN(c2nc(OCC3CCCN3C)nc3c(F)c(-c4nc(N)cc(C)c4C(F)(F)F)c(Cl)cc23)C(C)C1', '966289-007-R4-J1-PDC complex spheroid viability', 'viability, T/C', '134%'),
  ('CC(Nc1ccc2c(c1)OCCn1cc(N3C(=O)OCC3C(F)F)nc1-2)C(N)=O (stereo not given) + C#Cc1c(F)ccc2cc(O)cc(-c3ncc4c(N5CC6CCC(C5)N6)nc(OCC56CCCN5CC(F)C6)nc4c3F)c12', '966289-007-R4-J1-PDC complex spheroid viability', 'viability, T/C', '115%'),
  ('CC(=O)OC12COC1CC(O)C1(C)C(=O)C(O)C3=C(C)C(OC(=O)C(O)C(NC(=O)OC(C)(C)C)c4ccccc4)CC(O)(C(OC(=O)c4ccccc4)C21)C3(C)C (stereo not given) + C=CC(=O)N1CCN(c2nc(OCC3CCCN3C)nc3c(F)c(-c4nc(N)cc(C)c4C(F)(F)F)c(Cl)cc23)C(C)C1', '966289-007-R4-J1-PDC complex spheroid viability', 'viability, T/C', '35.8%'),
  ('CCC(CC)c1cc(NC2CCC(N)C2)n2nccc2n1 (stereo not given) + C=CC(=O)N1CCN(c2nc(OCC3CCCN3C)nc3c(F)c(-c4nc(N)cc(C)c4C(F)(F)F)c(Cl)cc23)C(C)C1', '966289-007-R4-J1-PDC complex spheroid viability', 'viability, T/C', '2.27%'),
  ('CC(Nc1ccc2c(c1)OCCn1cc(N3C(=O)OCC3C(F)F)nc1-2)C(N)=O (stereo not given) + C=CC(=O)N1CCN(c2nc(OCC3CCCN3C)nc3c(F)c(-c4nc(N)cc(C)c4C(F)(F)F)c(Cl)cc23)C(C)C1', '966289-007-R4-J1-PDC complex spheroid viability', 'viability, T/C', '96.5%'),
  ('NC1c2ccccc2OC12CCN(c1cnc3c(N4CCCc5ncccc54)n[nH]c3n1)CC2 (stereo not given) + C=CC(=O)N1CCN(c2nc(OCC3CCCN3C)nc3c(F)c(-c4nc(N)cc(C)c4C(F)(F)F)c(Cl)cc23)C(C)C1', '966289-007-R4-J1-PDC complex spheroid viability', 'viability, T/C', '116%');

###

Entries and their measured viability, T/C follow.
Tested on: 966289-007-R4-J1-PDC complex spheroid viability
Measurement protocol: Anticancer human tumor 966289-007-R4-J1-PDC cell line growth inhibition [RAS];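 further: spheroids exposed to agents for one week before readout; percent viability relative to DMSO vehicle control wells as 100%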
Condition parameters: second compound 0.003 µM; first compound 0.316 µM; stronger effect = lower value
Text: RAS pathway inhibitors in Combinations in Complex Spheroids A high-throughput screen of multi-cell type tumor spheroids was designed to identify active combinations of RAS pathway inhibitors and targeted small molecules. Complex spheroids include a stromal component modeled by human endothelial cells (HUVEC) and fibroblasts modeled by human mesenchymal stem cells (MSCs). […] Compounds. […] If the clinical Cmax for an agent had not been determined, the highest concentration tested was 10 microM. […]
Property measured: viability, T/C (%)

INSERT INTO results (molecule, property_measured, output_unit, reported) VALUES
  ('CC(C)NCC(C(=O)N1CCN(c2ncnc3c2C(C)CC3O)CC1)c1ccc(Cl)cc1 (configuration not stated) + CCn1c(-c2cccnc2C(C)OC)c2c3cc(ccc31)N1CCOC(CC(NC(=O)C(C(C)C)N(C)C(=O)C3(F)CCN(C(=O)C#CC(C)(C)N(C)C)CC3)C(=O)N3CCCC(N3)C(=O)OCC(C)(C)C2)C1', 'viability, T/C', '%', 98.9),
  ('CCN1CCN(Cc2ccc(Nc3ncc(F)c(-c4cc(F)c5nc(C)n(C(C)C)c5c4)n3)nc2)CC1 + CCn1c(-c2cc(N3CCN(C)CC3)cnc2C(C)OC)c2c3cc(ccc31)-c1csc(n1)CC(NC(=O)C1CC1C)C(=O)N1CCCC(N1)C(=O)OCC(C)(C)C2', 'viability, T/C', '%', 114);
